- TESTED SYSTEM: PCP binding sites of the NMDA receptor complex
- EXPERIMENTAL CONDITIONS: displacing (+)-[3H]MK-801 bound to rat brain homogenates; 0.5-1 nM radioligand, 100 μM glutamate, 30 μM glycine, 2 h room temperature, pH 7.4; mean of three experiments in duplicate ±SEM
READOUT KIND: IC50 (nM)
Reply numerically in nM, unit not repeated.

Solved cases (2 shown):
> print(dat)
                        compound                             tested.system  quantitative.result
1  N[C@@]12CCCC[C@@H]1Cc1ccccc12  PCP binding sites of the NMDA receptor complex                 1390
2   N[C@]12CC=CC[C@H]1Cc1ccccc12  PCP binding sites of the NMDA receptor complex                  114

Request: Can you look up IC50 on PCP binding sites of the NMDA receptor complex for N[C@]12CCCC[C@H]1Cc1ccccc12 ?
Response: 19

Request: Query c1csc(C2(N3CCCCC3)CCCCC2)c1 [TCP, 1-[1-(2-thienyl)-cyclohexyl]-piperidine, reference compound] next
Response: 11

Request: Okay, and N[C@@]12CC=CC[C@@H]1Cc1ccccc12 ?
Response: 2240

###

- Test system: PCP binding sites of the NMDA receptor complex
- Set-up: species or system rat
- EXPERIMENTAL CONDITIONS: relative to PCP = 100%, displacing (+)-[3H]MK-801
READOUT KIND: Relative Potency (%)
State the answer as a number, implicitly in %.

Request: Looking for the measured Relative Potency (%) of CCN[C@]12CCCC[C@H]1Cc1ccccc12 [Compound 7] , can you help?
Response: 51

Request: Also, N[C@@]12CCCC[C@@H]1Cc1ccccc12 [Compound 4] please.
Response: 3

Request: Also check c1ccc(C2(N3CCCCC3)CCCCC2)cc1 [PCP, phencyclidine, reference compound]
Response: 100

Request: Now this one: N[C@]12CC=CC[C@H]1Cc1ccccc12 [Compound 1]
Response: 31

Request: Also N[C@@]12CC=CC[C@@H]1Cc1ccccc12 [Compound 2] , if possible.
Response: 2

Request: // next record CCN[C@@]12CCCC[C@@H]1Cc1ccccc12 [Compound 8]
Response: 6

Request: Same question, N[C@]12CCCC[C@H]1Cc1ccccc12 [Compound 3] this time
Response: 184

Request: Consider next the compound c1csc(C2(N3CCCCC3)CCCCC2)c1 [TCP, 1-[1-(2-thienyl)-cyclohexyl]-piperidine, reference compound] in the same way.
Response: 318

###

- TESTED SYSTEM: PCP binding sites of the NMDA receptor complex
- EXPERIMENTAL CONDITIONS: displacing (+)-[3H]MK-801 bound to rat brain homogenates; 0.5-1 nM radioligand, 100 μM glutamate, 30 μM glycine, 2 h room temperature, pH 7.4; mean of three experiments in duplicate ±SEM
Property: IC50; scope: individual compounds
Your answer is read as nM, so omit the unit and give the number.

Study these solved cases before continuing.
> print(dat)
                                   compound                             tested.system  display.unit  quantitative.result
1  c1ccc(C2(N3CCCCC3)CCCCC2)cc1 [PCP, phencyclidine, reference compound]  PCP binding sites of the NMDA receptor complex            nM                   35
2           CCN[C@@]12CCCC[C@@H]1Cc1ccccc12  PCP binding sites of the NMDA receptor complex            nM                  546

Next, consider the following compound.
Request: Which measured IC50 value corresponds to CCN[C@]12CCCC[C@H]1Cc1ccccc12 ?
Response: 68
